method summary: chemical genetic growth profiling, strain panel (AID 1159580);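 note: tested at 20 µM; growth read once vehicle control cultures reached saturation at 30 °C; 1 = growth at the plate median or of vehicle wells; lower values mean less growth of the strain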
condition context: S. cerevisiae deletion strains, growth OD, locus YOL006C, strain TOP1
The whole screen tested about 5,500 compounds, of which about 2,000 (36%) were called active. About 18% were inconclusive and are not listed. Cut-off read from the data, not from the text of the source: active = normalized growth mostly below about 0.91 (no sharp cut-off); inconclusive = no clear call, values can overlap the other calls; inactive = mostly above about 0.92. The list shows a part of the results.
Just give me one of these, please: 1.0 = active, 0.0 = inactive

Some solved cases for reference:
CN1CCN(C2=Nc3ccccc3Oc3ccc(Cl)cc32)CC1 :: 0.0
Cc1ccc(/C(N)=N\O)cc1F :: 0.0
COC(=O)c1c(C)cc(OC(=O)c2c(C)cc(O)c(C=O)c2O)c(C)c1O :: 0.0
O=C(O)c1ccccc1C(=O)Nc1ccc(S(=O)(=O)Nc2nccs2)cc1 :: 0.0
CC(CN1c2ccccc2Sc2ccccc21)N(C)C (configuration not stated) :: 0.0
CC(=O)OCC(=O)[C@@]1(O)[C@H](OC(C)=O)CC2C3CCC4=CC(=O)C=C[C@]4(C)[C@@]3(F)[C@@H](O)C[C@@]21C (some centres not stated) :: 0.0
Cc1nc2ccccn2c(=O)c1CCN1CCC(C(=O)c2ccc(F)cc2)CC1 :: 0.0
C[C@]12C=CC(=O)C=C1CCC1C3C[C@@H](O)[C@](O)(C(=O)CO)[C@@]3(C)C[C@H](O)[C@@]12F (some centres not stated) :: 0.0
CCC(=O)c1ccc2c(c1)N(CC(C)N(C)C)c1ccccc1S2 (configuration not stated) :: 0.0
CNC(=O)Oc1ccc2c(c1)[C@]1(C)CCN(C)[C@@H]1N2C :: 0.0

q: Outcome? COc1cc(CC/C(C)=N/O)ccc1OCc1ccc(Cl)cc1Cl
a: 1.0

q: Follow-up item: CCN(CC)CCOC(=O)C(c1ccccc1)c1ccccc1
a: 0.0

q: Follow-up item: COc1c2ccoc2nc2c(OC)c(OCC(O)C(C)(C)O)ccc12 (configuration not stated)
a: 0.0

q: Follow-up item: COc1cc([C@H]2Oc3cc([C@H]4Oc5cc(O)cc(O)c5C(=O)[C@@H]4O)ccc3O[C@@H]2CO)ccc1O
a: 0.0

q: Follow-up item: CSc1ccc2c(c1)N(CCC1CCCCN1C)c1ccccc1S2 (configuration not stated)
a: 1.0

q: Follow-up item: COc1cc2c(cc1/C=C/C(=O)c1cc(OC)c(OC)cc1OC)OCO2
a: 0.0

q: Follow-up item: CC(=O)Nc1ccc(S(=O)(=O)NC2Cc3ccccc3C2)cc1
a: 0.0

q: Follow-up item: CC(CN(C)C)CN1c2ccccc2Sc2ccccc21 (configuration not stated)
a: 0.0

q: Follow-up item: CO[C@]12C[C@@H](COC(=O)c3cncc(Br)c3)CN(C)[C@@H]1Cc1cn(C)c3cccc2c13
a: 0.0

q: Follow-up item: N#C/C(=C\c1cccc(O)c1)C(=O)O
a: 0.0

q: Follow-up item: Cc1nc2sccn2c(=O)c1CCN1CCC(=C(c2ccc(F)cc2)c2ccc(F)cc2)CC1
a: 1.0

q: Follow-up item: CCCC(C(=O)OCCN(CC)CC)(c1ccccc1)c1ccccc1
a: 0.0
